Where these numbers come from: patent US20110158985A1

- System tested: T1, recombinant C-terminally truncated RSV (A2 strain) F protein (RSV (A2 strain), UniProt P03420 26-524)
- T1 construct: extracellular domain; also called truncated F protein; extracellular domain of the F protein from RSV A2
- T1 sequence (P03420 26-109, chain 1 of 2): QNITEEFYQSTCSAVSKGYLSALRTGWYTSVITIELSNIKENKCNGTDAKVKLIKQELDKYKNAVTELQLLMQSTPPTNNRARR
- T1 sequence (P03420 137-524, chain 2 of 2): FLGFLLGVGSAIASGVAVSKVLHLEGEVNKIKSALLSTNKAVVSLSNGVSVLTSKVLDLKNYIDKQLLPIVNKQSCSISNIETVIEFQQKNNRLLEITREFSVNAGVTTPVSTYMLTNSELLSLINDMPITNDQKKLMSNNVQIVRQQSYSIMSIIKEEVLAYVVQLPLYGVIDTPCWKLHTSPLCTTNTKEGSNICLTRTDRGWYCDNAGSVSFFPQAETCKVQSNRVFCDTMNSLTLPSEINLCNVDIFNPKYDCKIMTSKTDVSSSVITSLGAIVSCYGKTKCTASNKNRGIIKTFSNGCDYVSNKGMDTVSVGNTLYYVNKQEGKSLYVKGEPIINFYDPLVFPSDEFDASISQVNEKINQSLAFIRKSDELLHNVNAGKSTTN
- Test description: SPR (BIAcore), Fab over immobilised F
Measured endpoint: log10 of Kd (log10 of the value in nM)
# values: log10(Kd), units nM

Record excerpt, results attached:
Entry A17b5 Fab (Fab, V domains shown) VH: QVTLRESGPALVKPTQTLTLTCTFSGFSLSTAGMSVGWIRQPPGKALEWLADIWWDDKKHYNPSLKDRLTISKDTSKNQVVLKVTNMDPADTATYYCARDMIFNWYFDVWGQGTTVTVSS VL: DIQMTQSPSTLSASVGDRVTITCSLSSRVGYMHWYQQKPGKAPKLLIYDTYYLPSGVPSRFSGSGSGTEFTLTISSLQPDDFATYYCFQGSGYPFTFGGGTKVEIK ; log10 of Kd = -0.91

The binder listed as A3e2 Fab (Fab, V domains shown) VH: QVTLRESGPALVKPTQTLTLTCTFSGFSLSTAGMSVGWIRQPPGKALEWLADIWWGDKGHYNPSLKDRLTISKDTSKNQVVLKVTNMDPADTATYYCARDMIFNWYFDVWGQGTTVTVSS VL: DIQMTQSPSTLSASVGDRVTITCSASSSVGYMHWYQQKPGKAPKLLIYDTFYLHSGVPSRFSGSGSGTEFTLTISSLQPDDFATYYCFQGSGYPFTFGGGTKVEIK has a reported log10 of Kd of -0.80

log10 of Kd for P11d4 Fab (Fab, V domains shown) VH: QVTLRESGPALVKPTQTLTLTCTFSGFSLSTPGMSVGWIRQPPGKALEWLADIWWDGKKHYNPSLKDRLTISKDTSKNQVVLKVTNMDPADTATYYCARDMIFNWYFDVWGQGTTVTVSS VL: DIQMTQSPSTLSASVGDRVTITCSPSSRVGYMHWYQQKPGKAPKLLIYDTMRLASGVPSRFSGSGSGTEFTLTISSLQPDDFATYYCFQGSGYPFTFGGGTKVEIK is -0.17

// sample palivizumab Fab (recombinant) (Fab, V domains shown) VH: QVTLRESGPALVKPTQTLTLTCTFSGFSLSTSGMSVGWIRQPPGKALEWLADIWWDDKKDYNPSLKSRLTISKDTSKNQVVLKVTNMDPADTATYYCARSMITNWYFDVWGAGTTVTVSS VL: DIQMTQSPSTLSASVGDRVTITCKCQLSVGYMHWYQQKPGKAPKLLIYDTSKLASGVPSRFSGSGSGTEFTLTISSLQPDDFATYYCFQGSGYPFTFGGGTKLEIK , its log10 of Kd was 0.72

Reported log10 of Kd for P12f2 Fab (Fab, V domains shown) VH: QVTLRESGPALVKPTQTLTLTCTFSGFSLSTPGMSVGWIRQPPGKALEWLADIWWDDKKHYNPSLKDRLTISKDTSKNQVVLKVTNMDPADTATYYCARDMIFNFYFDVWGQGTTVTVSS VL: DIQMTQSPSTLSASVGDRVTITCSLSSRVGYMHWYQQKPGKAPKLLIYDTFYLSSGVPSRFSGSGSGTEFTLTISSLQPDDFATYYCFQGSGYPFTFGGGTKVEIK was -0.87

Now consider the entry below.
Entry A13a11 Fab (Fab, V domains shown) VH: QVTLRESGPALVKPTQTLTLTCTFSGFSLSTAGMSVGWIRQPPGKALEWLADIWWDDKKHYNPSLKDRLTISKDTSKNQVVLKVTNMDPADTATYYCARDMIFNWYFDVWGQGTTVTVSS VL: DIQMTQSPSTLSASVGDRVTITCSPSSRVGYMHWYQQKPGKAPKLLIYDTYRHSSGVPSRFSGSGSGTEFTLTISSLQPDDFATYYCFQGSGYPFTFGGGTKVEIK ; log10 of Kd = -0.47
